Below are pIC50 values for Cytochrome P450 2D6 (Homo sapiens, UniProt P10635) collected from several publications.
As a rule, pIC50 stands for the negative log10 of the concentration, concentration in M.

Recorded pIC50, per entry:
compound | pIC50
Cc1cccc2c1C(c1ccccc1)N(C(=O)CNC[C@@H](C)O)CC2 (stereo not given in full) | 5.25
CC(C)c1nc(CN(C)C(=O)N[C@H](C(=O)N[C@H](CC[C@H](Cc2ccccc2)NC(=O)OCc2cncs2)Cc2ccccc2)C(C)C)cs1 | 5.54
CCn1c(C(C)NS(=O)(=O)c2ccc(Cl)cc2)nc2cnccc21 (stereo not given) | 6.64
CC1=C(C(=O)Nc2cc3cn[nH]c3cc2F)C(c2ccc(Cl)cc2F)N=C(c2ccnc(Cl)c2)N1 (stereo not given) | 5.28
C[C@H](C1=C(CCN(C)Cc2ncc[nH]2)Cc2ccccc21)c1cnccn1 | 5.23

Next compound, please.
Quick note, pIC50 for "NC1=N[C@@]2(c3ccc(F)cc3F)CO[C@@H](c3ncco3)C[C@H]2CS1" landed at 6.48

###

Below are IC50 values for Cytochrome P450 2D6 (Homo sapiens, UniProt P10635) collected from several publications.
Please reply with the bare figure in nM and do not write the unit itself.

Recorded IC50, per entry:
compound | test.result
CC[C@@H](O)CNCC(=O)N1CCc2ccccc2C1C1CCCCC1 (stereo not given in full) | 1000
CCN[C@@H]1CCC=C(c2ccc(F)cc2)[C@H]1COc1cc(F)c(S(=O)(=O)Nc2cscn2)cc1Cl.Cl | 22000

Entry "CCCS(=O)(=O)N(Cc1ccccc1-c1ccccc1)[C@H]1CCNC1" , Cytochrome P450 2D6 (Homo sapiens, UniProt P10635) data, IC50 value: 185

###

Below are pIC50 values for Cytochrome P450 2D6 (Homo sapiens, UniProt P10635) collected from several publications.
As a rule, pIC50 stands for the negative log10 of the concentration, concentration in M.

Recorded pIC50, per entry:
molecule | pIC50
CC(C)C(=O)N(Cc1ccc(Cl)c(Cl)c1Cl)[C@H]1CCNC1 | 4.75
CNCc1cnc(C)cc1Oc1ccccc1Oc1ccccc1 | 5.47
CCCSc1nc2ccc(OC)cc2[nH]1 | 5.71

Quick note, pIC50 for CC(C)C1c2ccc(F)cc2CCN1C(=O)CNCC1(O)CCCCC1 (centres undefined) landed at 6.41

Quick note, pIC50 for "CC(C)C(=O)N(Cc1cccc(Cl)c1Cl)[C@H]1CCNC1" landed at 4.57

Quick note, pIC50 for "CC(C)c1nc(CN(C)C(=O)N[C@H](C(=O)N[C@@H](Cc2ccccc2)[C@H](Cc2ccccc2)NC(=O)OCc2cncs2)C(C)C)cs1" landed at 5.64

Quick note, pIC50 for "O=C(Nc1ccc(Oc2ccc(F)cc2)cc1)[C@@H]1C[C@@H](Cc2ccc(F)cc2)CN1C(=O)Cn1ccnn1" landed at 4.69

Quick note, pIC50 for "O=C(Cn1cnc2ccccc2c1=O)Nc1ccc(C[C@@H]2CC[C@H]([C@H](O)c3ccccc3)N2)cc1" landed at 4.51

Quick note, pIC50 for COCCOc1ccn2c(-c3ccc4cccc(O[C@@H]5CCNC[C@@H]5F)c4n3)cnc2c1 (relative stereo) landed at 5.23

Quick note, pIC50 for Clc1cccc(C(c2ccc3[nH]cnc3c2)n2ccnc2)c1 (centres undefined) landed at 5.32

Quick note, pIC50 for "O=C(N[C@@H](Cc1c[nH]c2ccc(O)cc12)c1cscn1)c1ccc2c(c1)nc(-c1ccoc1)n2C1CCCCC1" landed at 5.40

###

Below are IC50 values for Cytochrome P450 2D6 (Homo sapiens) collected from several publications.

Entry "Cc1ccc(-c2ncnc(Nc3ccc4c(c3Cl)CNC4=N)c2O)cc1" , Cytochrome P450 2D6 (Homo sapiens) data, IC50 value: > 20 µM

Entry "Cc1cc(-c2cc(OC(F)(F)F)ccc2Cl)cc(C)c1OCCCC(=O)O" , Cytochrome P450 2D6 (Homo sapiens) data, IC50 value: > 50 µM

Entry "Cl.N[C@H]1Cn2c(nc3cnccc32)C[C@@H]1c1cc(F)c(F)cc1F" , Cytochrome P450 2D6 (Homo sapiens) data, IC50 value: 13 µM

Entry "CC(=O)O[C@@H]1[C@@H](O)[C@@H](OC(C)=O)[C@H](Oc2c(-c3ccc(O)cc3)oc3cc(O)cc(O)c3c2=O)O[C@H]1C" , Cytochrome P450 2D6 (Homo sapiens) data, IC50 value: > 100 µM

Entry "O=C(O)CCCOc1cccc(CCCCCCOc2cc(-c3cccc(F)c3)cc(-c3ccc4c(c3)OCO4)c2)c1CCC(=O)O" , Cytochrome P450 2D6 (Homo sapiens) data, IC50 value: > 7.5 µM

###

Below are IC50 values for Cytochrome P450 2D6 (Homo sapiens, UniProt P10635) collected from several publications.

compound | endpoint.name | test.result
N[C@H]1CN(c2ccc3nc(=O)ccn3n2)CC[C@@H]1c1cc(F)c(F)cc1F.O=C(O)C(F)(F)F | IC50 | 55.4 µM
COc1ccc2c(c1)CCN(C(=O)CNC[C@@H](C)O)C2C1CCCCC1 (stereo partly drawn) | IC50 | < 0.78 µM
CN1CCN(c2cn(S(=O)(=O)c3ccc(F)cc3)c3ccc(Br)cc23)CC1 | IC50 | 28.8 µM
CC(C)S(=O)(=O)NC1Cc2ccc(-c3cncc(C#N)c3)cc2C1 (stereo not drawn) | IC50 | > 10 µM
CC(C)S(=O)(=O)NC1Cc2ccc(-c3cccnc3F)cc2C1 (stereo not drawn) | IC50 | > 10 µM

Entry "Cn1ccnc1C(=O)N1CCC(c2ccc(C(=O)NC(=N)N)cc2C(F)(F)F)CC1" , Cytochrome P450 2D6 (Homo sapiens, UniProt P10635) data, IC50 value: > 30 µM

Entry "NS(=O)(=O)NCC(=O)NCCSc1nonc1/C(=N/O)Nc1ccc(F)c(C(F)F)c1" , Cytochrome P450 2D6 (Homo sapiens, UniProt P10635) data, IC50 value: > 10 µM

Entry "COc1cc2ccnc(Oc3ccc(F)cc3)c2cc1OC" , Cytochrome P450 2D6 (Homo sapiens, UniProt P10635) data, IC50 value: 1.9 µM

Entry CC1C2C=C(C=C3c4ccccc4CCc4ccccc43)CC1CC2 (stereo not drawn) , Cytochrome P450 2D6 (Homo sapiens, UniProt P10635) data, IC50 value: 0.21 µM

Entry "O=S(=O)(CC[C@@H]1OCC[C@@]2(S(=O)(=O)c3ccc(Cl)cc3)c3c(F)ccc(F)c3OC[C@@H]12)[C@H]1CCNC1" , Cytochrome P450 2D6 (Homo sapiens, UniProt P10635) data, IC50 value: > 20 µM

Entry "Cc1cc2c(NC(=O)N[C@@H]3CC(C)(C)Oc4c(F)cc(F)cc43)cccc2cn1" , Cytochrome P450 2D6 (Homo sapiens, UniProt P10635) data, IC50 value: > 20 µM

Entry "Cc1ccc(Oc2ccc(-c3nnn(CCN)n3)cc2)cc1" , Cytochrome P450 2D6 (Homo sapiens, UniProt P10635) data, IC50 value: 14 µM

Entry "CC(C)[C@]1(C)SC(N[C@H]2C[C@@H]3CC[C@H]2C3)=NC1=O" , Cytochrome P450 2D6 (Homo sapiens, UniProt P10635) data, IC50 value: > 15 µM

Entry "Nc1noc2ccc(-c3cc(Cl)ccc3Oc3cc(F)c(S(=O)(=O)Nc4ncns4)cc3F)cc12" , Cytochrome P450 2D6 (Homo sapiens, UniProt P10635) data, IC50 value: > 9 µM

###

Below are pIC50 values for Cytochrome P450 2D6 (Homo sapiens, UniProt P10635) collected from several publications.
As a rule, pIC50 stands for the negative log10 of the concentration, concentration in M.

Recorded pIC50, per entry:
structure.as.smiles | pIC50
c1ccc(CC[C@@H]2CN(Cc3nc4ccccc4[nH]3)CCO2)cc1 | 4.92
C[C@@]1(c2cc(NC(=O)c3ccc(F)cn3)ccc2F)C=CSC(N)=N1 | 4.96
CCOC(=O)N(Cc1ccccc1-c1ccccc1)[C@@H]1CCNC1 | 6.46

Next molecule, please.
Entry "Fc1cc(OC(F)(F)C(F)F)cc([C@@](Cc2ccccc2)(Nc2nc3c(F)cc(F)cc3[nH]2)c2ccc(Cl)cn2)c1" , Cytochrome P450 2D6 (Homo sapiens, UniProt P10635) data, pIC50 value: 4.40

###

Below are IC50 values for Cytochrome P450 2D6 (Homo sapiens) collected from several publications.

Recorded IC50, per entry:
compound | IC50
CC(C)N1CCC(Oc2ccc(C(=O)NC3CCN(C(C)C)C3)cc2)CC1 (centres undefined) | > 45 µM
Cc1cc2c(cc1F)c(C#N)c(-c1ccc(S(=O)(=O)N[C@@H](C)C(F)(F)F)cn1)n2-c1ncccc1F | > 10 µM
COc1cc(N2CCN(C)CC2)ccc1-c1nc2c(N[C@H]3[C@@H](C(N)=O)[C@@H]4C=C[C@H]3C4)c(Cl)cnc2[nH]1 | > 30 µM
Cc1c(C(=O)NCCCN2CCN(c3cccc(Cl)c3Cl)CC2)cc(-c2ccccc2)n1C | > 20 µM
Cn1ccc2cc(-n3c(=O)[nH]c4sc5c(c4c3=O)CCCC5)ccc21 | > 30 µM
O=C(c1ccc(-n2nc(C(F)(F)F)c3c2COCC3)cc1)N1CCCC1 | > 10 µM

Quick note, IC50 for "Cc1cccc(N2CCN(CCCNC(=O)c3nc(C)n(-c4ccc5c(c4)OCCO5)c3C)CC2)c1C" landed at 17.9 µM

Quick note, IC50 for O=C(O)CCC1(c2cccnc2)CCCN(C(=O)Nc2ccc(Cl)cc2)C1 (centres undefined) landed at > 10 µM

Quick note, IC50 for "COc1ccc(-c2c(C)nn3c(C(F)(F)F)cc(C)nc23)cc1" landed at > 30 µM

Quick note, IC50 for "C=CC(=O)N1CCC[C@@H](n2nc(-c3ccc(Oc4ccccc4)cc3)c3c(N)n[nH]c(=O)c32)C1" landed at > 100 µM

Quick note, IC50 for "Cn1cnc2ncn(Cc3nc([C@@H]4CO[C@@H](c5ccc(Cl)cc5)C4)no3)c(=O)c21" landed at > 10 µM

Quick note, IC50 for "Cc1cncc(-c2ccc(C(=O)N(c3ncccc3Cl)[C@@H]3CCCNC3)cc2)n1" landed at > 30 µM
